Source listed as patent US7572786B2.

Target Under Test: NK3 (Homo sapiens)
Sequence (P29371 1-465): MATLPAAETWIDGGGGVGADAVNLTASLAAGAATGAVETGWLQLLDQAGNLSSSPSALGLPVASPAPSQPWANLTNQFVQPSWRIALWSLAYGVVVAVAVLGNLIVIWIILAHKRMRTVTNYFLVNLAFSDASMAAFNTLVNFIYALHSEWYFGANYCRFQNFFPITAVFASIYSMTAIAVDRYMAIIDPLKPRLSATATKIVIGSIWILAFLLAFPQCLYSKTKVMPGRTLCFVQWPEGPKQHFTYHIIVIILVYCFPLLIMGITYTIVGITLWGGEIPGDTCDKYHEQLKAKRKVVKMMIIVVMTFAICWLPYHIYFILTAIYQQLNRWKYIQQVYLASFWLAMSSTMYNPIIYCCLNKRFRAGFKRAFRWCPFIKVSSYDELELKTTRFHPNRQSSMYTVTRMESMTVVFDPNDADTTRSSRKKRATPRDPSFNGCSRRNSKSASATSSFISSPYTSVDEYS
Assay Name: Signal transduction (ST), intracellular Ca++ (FLIPR), NK3
Type: cell-based
Condition Notes: read-out: pIC50 NK3 (converted)
Can you tell me IC50 for the items I'm about to list?
Expressed in nM, but write only the number.

[ask] For CC(C(=O)N1CCCC(N2CCN([C@H]3CCN(C(=O)c4cc(C(F)(F)F)cc(C(F)(F)F)c4)[C@H](Cc4ccccc4)C3)CC2)C1)c1ccccc1 (stereo partly drawn) [Compound 48] , write its IC50.
[reply] 631

[ask] Item O=C(c1cc(C(F)(F)F)cc(C(F)(F)F)c1)N1CC[C@H](N2CCN(C3CCCN(S(=O)(=O)c4ccccc4C(F)(F)F)C3)CC2)C[C@H]1Cc1ccccc1 (stereo partly drawn) [Compound 50] : provide IC50
[reply] 7940

[ask] Dear colleague, please send me the reported IC50 for O=C(C1CC1)N1CCCC(N2CCN([C@H]3CCN(C(=O)c4cc(C(F)(F)F)cc(C(F)(F)F)c4)[C@H](Cc4ccccc4)C3)CC2)C1 (stereo partly drawn) [Compound 15] when you can.
[reply] 158

###

Target Under Test: NK1 (Homo sapiens, UniProt P25103)
Sequence (P25103 whole entry): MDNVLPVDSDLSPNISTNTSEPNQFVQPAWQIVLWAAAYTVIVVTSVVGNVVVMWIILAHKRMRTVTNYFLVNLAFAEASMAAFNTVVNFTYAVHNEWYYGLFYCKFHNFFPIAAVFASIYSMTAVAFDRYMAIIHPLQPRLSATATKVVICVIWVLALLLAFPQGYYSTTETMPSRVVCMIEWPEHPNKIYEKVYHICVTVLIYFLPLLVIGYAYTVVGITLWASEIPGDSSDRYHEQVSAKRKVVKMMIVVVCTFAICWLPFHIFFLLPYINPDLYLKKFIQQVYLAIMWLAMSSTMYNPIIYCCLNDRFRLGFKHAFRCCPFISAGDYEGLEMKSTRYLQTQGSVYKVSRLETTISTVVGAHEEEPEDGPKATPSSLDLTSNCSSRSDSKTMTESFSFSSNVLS
Assay Name: Signal transduction (ST), intracellular Ca++ (FLIPR), NK1 antagonism
Type: cell-based
Condition Notes: read-out: pIC50 NK1 (converted)
Observation Type: IC50 (nM)
Give the number; nM is assumed, so skip it.

[ask] Return IC50 for the following compound: O=C(c1cc(C(F)(F)F)cc(C(F)(F)F)c1)N1CCC(N2CCN(C3CCCN(S(=O)(=O)c4ccc(O)cc4)C3)CC2)CC1Cc1ccccc1 (stereo not drawn)
[reply] 3.98

[ask] Name the recorded IC50 of the item O=C(c1sccc1CO)N1CCCC(N2CCN([C@H]3CCN(C(=O)c4cc(C(F)(F)F)cc(C(F)(F)F)c4)[C@H](Cc4ccccc4)C3)CC2)C1 (stereo partly drawn) in your answer.
[reply] 10

[ask] Using known records, supply IC50 for O=C(c1cc(C(F)(F)F)cc(C(F)(F)F)c1)N1CC[C@H](N2CCN(C3CCCN(S(=O)(=O)c4ccccc4C(F)(F)F)C3)CC2)C[C@H]1Cc1ccccc1 (stereo partly drawn)
[reply] 100

###

Target Under Test: NK1 (Homo sapiens)
Assay Name: Signal transduction (ST), intracellular Ca++ (FLIPR), NK1 antagonism
Type: cell-based
Condition Notes: read-out: pIC50 NK1 (converted)
I'd appreciate it if you could supply IC50 values for the items below.
Give the value in nM but do not write nM after it.

[ask] Output IC50 of O=C(c1ccoc1)N1CCCC(N2CCN(C3CCN(C(=O)c4cc(C(F)(F)F)cc(C(F)(F)F)c4)C(Cc4ccccc4)C3)CC2)C1 (stereo not drawn)
[reply] 31.6

[ask] Give me measured IC50, please, for this molecule: O=C(c1ccc(CCO)s1)N1CCCC(N2CCN(C3CCN(C(=O)c4cc(C(F)(F)F)cc(C(F)(F)F)c4)C(Cc4ccccc4)C3)CC2)C1 (stereo not drawn)
[reply] 12.6

[ask] Answer with the recorded IC50 of O=C(OCc1ccccc1C(=O)N1CCCC(N2CCN([C@H]3CCN(C(=O)c4cc(C(F)(F)F)cc(C(F)(F)F)c4)[C@H](Cc4ccccc4)C3)CC2)C1)c1ccccc1 (stereo partly drawn) only.
[reply] 63.1

[ask] # return recorded IC50 for input COc1ccc(S(=O)(=O)N2CCCC(N3CCN([C@H]4CCN(C(=O)c5cc(C(F)(F)F)cc(C(F)(F)F)c5)[C@H](Cc5ccccc5)C4)CC3)C2)s1 (stereo partly drawn)
[reply] 31.6

[ask] Give IC50 for the following molecule: COc1ccc(C)cc1S(=O)(=O)N1CCCC(N2CCN([C@H]3CCN(C(=O)c4cc(C(F)(F)F)cc(C(F)(F)F)c4)[C@H](Cc4ccccc4)C3)CC2)C1 (stereo partly drawn)
[reply] 25.1

[ask] State, in one line, measured IC50 of O=C(c1cc(C(F)(F)F)cc(C(F)(F)F)c1)N1CCC(N2CCN(C3CCCNC3)CC2)CC1Cc1ccccc1 (stereo not drawn) [Compound 2]
[reply] 20

[ask] Identify measured IC50 corresponding to O=C(Cc1cccs1)N1CCCC(N2CCN([C@H]3CCN(C(=O)c4cc(C(F)(F)F)cc(C(F)(F)F)c4)[C@H](Cc4ccccc4)C3)CC2)C1 (stereo partly drawn)
[reply] 10

[ask] Give me measured IC50, please, for this molecule: O=C(c1cc(C(F)(F)F)cc(C(F)(F)F)c1)N1CC[C@H](N2CCN(C3CCCN(S(=O)(=O)c4ccc5nonc5c4)C3)CC2)C[C@H]1Cc1ccccc1 (stereo partly drawn)
[reply] 20

[ask] Specify measured IC50 for O=C(c1ccoc1)N1CCCC(N2CCCN(C3CCN(C(=O)c4cc(C(F)(F)F)cc(C(F)(F)F)c4)C(Cc4ccccc4)C3)CC2)C1 (single isomer, unassigned) [Compound 112] .
[reply] 158

[ask] Given CC(=O)OCC(c1ccccc1Cl)N1CCCC(N2CCN(C3CCN(C(=O)c4cc(C(F)(F)F)cc(C(F)(F)F)c4)C(Cc4ccccc4)C3)CC2)C1 (stereo not drawn) , respond with its IC50.
[reply] 398

[ask] # return recorded IC50 for entry O=C(C1CC1)N1CCCC(N2CCCN([C@@H]3CCN(C(=O)c4cc(C(F)(F)F)cc(C(F)(F)F)c4)[C@H](Cc4ccccc4)C3)CC2)C1 (stereo partly drawn)
[reply] 126

[ask] Identify measured IC50 associated with O=C(c1ccccc1Cl)N1CCCC(N2CCCN([C@H]3CCN(C(=O)c4cc(C(F)(F)F)cc(C(F)(F)F)c4)[C@H](Cc4ccccc4)C3)CC2)C1 (stereo partly drawn)
[reply] 63.1
